molecular target: Nucleotide-binding oligomerization domain-containing protein 2 (Homo sapiens, UniProt Q9HC29); test: Antagonist activity at human NOD2 expressed in HEK-Blue cells assessed as inhibition of MDP-stimulated cell activation at 5 uM preincubated for 3 hrs followed by MDP addition measured after 20 hrs by SEAP reporter gene assay; type: cell-based
Sequence (Q9HC29 whole entry, the tested form may be a part): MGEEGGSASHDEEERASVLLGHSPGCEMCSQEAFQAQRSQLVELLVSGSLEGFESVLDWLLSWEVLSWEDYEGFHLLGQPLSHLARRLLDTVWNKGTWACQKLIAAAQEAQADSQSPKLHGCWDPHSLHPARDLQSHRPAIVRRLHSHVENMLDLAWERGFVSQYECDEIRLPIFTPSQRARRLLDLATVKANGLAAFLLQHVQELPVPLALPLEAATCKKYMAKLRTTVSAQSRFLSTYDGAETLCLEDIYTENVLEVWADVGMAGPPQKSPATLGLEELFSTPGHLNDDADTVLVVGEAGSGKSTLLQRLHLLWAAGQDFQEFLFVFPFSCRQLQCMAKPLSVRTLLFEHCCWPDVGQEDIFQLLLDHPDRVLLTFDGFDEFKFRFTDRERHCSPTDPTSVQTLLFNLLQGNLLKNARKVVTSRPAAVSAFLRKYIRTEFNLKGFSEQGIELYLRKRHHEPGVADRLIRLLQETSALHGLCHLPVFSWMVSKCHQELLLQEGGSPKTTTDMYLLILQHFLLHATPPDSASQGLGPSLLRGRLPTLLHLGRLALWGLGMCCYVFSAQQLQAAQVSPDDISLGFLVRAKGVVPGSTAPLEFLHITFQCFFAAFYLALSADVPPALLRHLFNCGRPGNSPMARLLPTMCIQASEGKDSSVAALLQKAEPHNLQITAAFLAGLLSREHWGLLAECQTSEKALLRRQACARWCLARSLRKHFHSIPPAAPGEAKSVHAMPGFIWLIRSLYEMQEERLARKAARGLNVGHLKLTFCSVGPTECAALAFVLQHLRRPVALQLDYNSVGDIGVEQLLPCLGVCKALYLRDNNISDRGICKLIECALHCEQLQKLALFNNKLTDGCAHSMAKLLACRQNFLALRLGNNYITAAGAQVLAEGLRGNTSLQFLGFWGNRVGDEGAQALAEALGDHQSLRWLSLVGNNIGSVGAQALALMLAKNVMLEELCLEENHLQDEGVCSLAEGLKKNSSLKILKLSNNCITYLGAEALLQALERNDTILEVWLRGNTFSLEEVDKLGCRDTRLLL
Rule: inhibition of 60% or more gives satisfied; anything lower gives not satisfied.

Check out these entries, answers already filled in.
smiles-str | classification
COC(=O)CC[C@H]1NC(=O)c2cc(Oc3cccc(N(C)C)c3)c(NC(=O)COCc3ccc(F)cc3)cc2NC1=O | satisfied
COC(=O)CC[C@H]1NC(=O)c2cc(Oc3cccc(N(C)C)c3Cl)c(NC(=O)COCc3ccc(Cl)cc3)cc2NC1=O | not satisfied
CN(C)c1cccc(Oc2cc3c(cc2NC(=O)COCc2ccc(C(F)(F)F)cc2)NC(=O)[C@@H](CCC(=O)N2CCC(F)CC2)NC3=O)c1 | satisfied
CCCNC(=O)CC[C@H]1NC(=O)c2cc(Oc3cccc(N(C)C)c3)c(NC(=O)COCc3ccc(Br)cc3)cc2NC1=O | not satisfied
COC(=O)CC[C@H]1NC(=O)c2cc(Oc3cc(Cl)c(Cl)c(N(C)C)c3Cl)c(NC(=O)COCc3ccccc3)cc2NC1=O | not satisfied

Test whether the compound CCCNC(=O)CC[C@@H]1NC(=O)c2cc(Oc3cccc(N(C)C)c3)c(NC(=O)COCc3ccccc3)cc2NC1=O records inhibition of 60% or higher. not satisfied

Test whether the compound COC(=O)CC[C@H]1NC(=O)c2cc(Oc3ccc(Cl)c(N(C)C)c3)c(NC(=O)COCc3ccc(Cl)cc3)cc2NC1=O records inhibition of 60% or higher. satisfied

Test whether the compound COC(=O)CC[C@H]1NC(=O)c2cc(Oc3cccc(N(C)C)c3)c(NC(=O)COCc3ccc4ccccc4c3)cc2NC1=O records inhibition of 60% or higher. satisfied

Test whether the compound COC(=O)CC[C@H]1NC(=O)c2cc(Oc3cccc(N(C)C)c3)c(NC(=O)COCc3ccc(C(C)(C)C)cc3)cc2NC1=O records inhibition of 60% or higher. satisfied

====

Target: Nucleotide-binding oligomerization domain-containing protein 1 (Homo sapiens, UniProt Q9Y239)
Sequence (Q9Y239 whole entry): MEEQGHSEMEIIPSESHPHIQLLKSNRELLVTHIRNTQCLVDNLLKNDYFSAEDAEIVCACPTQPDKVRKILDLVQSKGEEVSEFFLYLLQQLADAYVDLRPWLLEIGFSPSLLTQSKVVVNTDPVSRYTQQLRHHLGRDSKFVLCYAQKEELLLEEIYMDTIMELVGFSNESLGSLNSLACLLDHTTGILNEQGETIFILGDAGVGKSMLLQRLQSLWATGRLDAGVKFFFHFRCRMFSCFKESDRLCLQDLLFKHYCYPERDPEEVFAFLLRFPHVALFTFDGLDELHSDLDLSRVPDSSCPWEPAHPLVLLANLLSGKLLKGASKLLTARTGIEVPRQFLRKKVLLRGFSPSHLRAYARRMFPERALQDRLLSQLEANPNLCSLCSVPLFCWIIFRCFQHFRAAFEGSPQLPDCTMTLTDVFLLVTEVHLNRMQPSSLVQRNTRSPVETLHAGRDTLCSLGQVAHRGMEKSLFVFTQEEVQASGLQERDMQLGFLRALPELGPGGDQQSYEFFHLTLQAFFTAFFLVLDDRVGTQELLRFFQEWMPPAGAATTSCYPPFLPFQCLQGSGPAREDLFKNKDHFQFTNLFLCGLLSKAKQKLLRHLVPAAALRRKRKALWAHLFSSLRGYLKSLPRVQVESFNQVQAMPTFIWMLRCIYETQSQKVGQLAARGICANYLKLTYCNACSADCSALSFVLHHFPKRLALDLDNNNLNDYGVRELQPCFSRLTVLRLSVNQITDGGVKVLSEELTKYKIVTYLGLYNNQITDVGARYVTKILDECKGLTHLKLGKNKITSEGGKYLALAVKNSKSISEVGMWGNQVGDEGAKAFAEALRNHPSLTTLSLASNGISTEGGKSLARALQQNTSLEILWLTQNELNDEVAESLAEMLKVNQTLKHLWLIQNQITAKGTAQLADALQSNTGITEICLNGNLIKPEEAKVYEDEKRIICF
Assay: Antagonist activity at human NOD1 expressed in HEK-blue cells assessed as inhibition of C12-iE-DAP-stimulated cell activation preincubated for 3 hrs followed by C12-iE-DAP addition measured after 20 hrs by SEAP reporter gene assay
endpoint: pIC50
Conceptually, pIC50 converts a concentration in mol/L into minus its log10.

// known answers, use as guide
smiles-str | pIC50
CN(C)c1cccc(Oc2cc3c(cc2NC(=O)COCc2ccccc2)NC(=O)[C@@H](CCC(=O)NC(C)(C)C)NC3=O)c1 | 5.95
CN(C)c1cccc(Oc2cc3c(cc2NC(=O)COCc2ccc(C(F)(F)F)cc2)NC(=O)[C@@H](CCC(=O)N2CCC(F)(F)CC2)NC3=O)c1 | 6.37
COC(=O)CC[C@H]1NC(=O)c2cc(Oc3cccc(N(C)C)c3)c(NC(=O)COCc3ccc(F)cc3)cc2NC1=O | 5.63
CN(C)c1cccc(Oc2cc3c(cc2NC(=O)COCc2ccccc2)NC(=O)[C@@H](CCC(=O)N2CCCC2)NC3=O)c1 | 5.63
CN(C)C(=O)CC[C@H]1NC(=O)c2cc(Oc3cccc(N(C)C)c3)c(NC(=O)COCc3ccccc3)cc2NC1=O | 5.31

pIC50 in this record for COC(=O)CC[C@H]1NC(=O)c2cc(Oc3cccc(N(C)C)c3)c(NC(=O)COCc3ccc(Br)cc3)cc2NC1=O : 6.24

====

molecular target: Nucleotide-binding oligomerization domain-containing protein 1 (Homo sapiens); experiment: Antagonist activity at human NOD1 expressed in HEK-Blue cells assessed as inhibition of C12-iE-DAP-stimulated cell activation at 10 uM preincubated for 3 hrs followed by C12-iE-DAP addition measured after 20 hrs by SEAP reporter gene assay; type: cell-based
Okay, here is how we bin by inhibition: lower bin (below 30%), middle bin (30% to below 70%), upper bin (70% or more)

Consider CN(C)c1cccc(Oc2cc3c(cc2NC(=O)COCc2ccc(C(F)(F)F)cc2)NC(=O)[C@@H](CCC(=O)N2CCC(F)(F)CC2)NC3=O)c1 . To which inhibition class does it belong? upper bin

Consider CCCCCCCCCCCCCCCCCCNC(=O)CC[C@H]1NC(=O)c2cc(Oc3cccc(N(C)C)c3)c(NC(=O)COCc3ccccc3)cc2NC1=O . To which inhibition class does it belong? lower bin

Consider C=CC(=O)Nc1cc2c(cc1Oc1cccc(N(C)C)c1)C(=O)N[C@H](CCC(=O)OC)C(=O)N2 . To which inhibition class does it belong? upper bin

====

target: Nucleotide-binding oligomerization domain-containing protein 2 (Homo sapiens, UniProt Q9HC29); experiment: Antagonist activity at human NOD2 expressed in HEK-Blue cells assessed as inhibition of MDP-stimulated cell activation at 5 uM preincubated for 3 hrs followed by MDP addition measured after 20 hrs by SEAP reporter gene assay; type: cell-based
endpoint: inhibition (%)
Express the result in % but write the number alone.

smiles-str | inhibition, %
CN(C)c1cccc(Oc2cc3c(cc2NC(=O)COCc2ccc(C(F)(F)F)cc2)NC(=O)CNC3=O)c1 | 31.6
COC(=O)CC[C@H]1NC(=O)c2cc(Oc3cccc(N4CCCC4)c3)c(NC(=O)COCc3ccc(Cl)cc3)cc2NC1=O | 86
C=CCOCC(=O)Nc1cc2c(cc1Oc1cccc(N(C)C)c1)C(=O)N[C@H](CCC(=O)OC)C(=O)N2 | 38.5
CN(C)c1cccc(Oc2cc3c(cc2NC(=O)COCc2ccccc2)NC(=O)[C@@H](CCC(=O)N2CCCC2)NC3=O)c1 | 58.2
CCCCN(CCCC)C(=O)CC[C@H]1NC(=O)c2cc(Oc3cccc(N(C)C)c3)c(NC(=O)COCc3ccccc3)cc2NC1=O | 85
CN(C)c1cccc(Oc2cc3c(cc2NC(=O)COCc2ccccc2)NC(=O)[C@@H](CCC(=O)NC(C)(C)C)NC3=O)c1 | 80.3
CN(C)c1cccc(Oc2cc3c(cc2NC(=O)COCc2ccccc2)NC(=O)[C@@H](CCC(=O)N2CCCCC2)NC3=O)c1 | 63.3
CCCCCCCCCCCCNC(=O)CC[C@H]1NC(=O)c2cc(Oc3cccc(N(C)C)c3)c(NC(=O)COCc3ccccc3)cc2NC1=O | 29.1
COC(=O)CC[C@H]1NC(=O)c2cc(Oc3cccc(N(C)C)c3)c(NC(=O)COCc3ccc(C(F)(F)F)cc3)cc2NC1=O | 89
C[C@@H]1NC(=O)c2cc(Oc3cccc(N(C)C)c3)c(NC(=O)COCc3ccc(C(F)(F)F)cc3)cc2NC1=O | 64.5

inhibition in this record for CCN(CC)C(=O)CC[C@H]1NC(=O)c2cc(Oc3cccc(N(C)C)c3)c(NC(=O)COCc3ccccc3)cc2NC1=O : 60.8

inhibition in this record for CCCCCCCCCCCCCCCCNC(=O)CC[C@H]1NC(=O)c2cc(Oc3cccc(N(C)C)c3)c(NC(=O)COCc3ccccc3)cc2NC1=O : -4.77

inhibition in this record for COC(=O)CC[C@H]1NC(=O)c2cc(Oc3cccc(N(C)C)c3)c(NC(=O)COCc3cccc(Cl)c3)cc2NC1=O : 71.5

inhibition in this record for COC(=O)CC[C@H]1NC(=O)c2cc(Oc3cc(N(C)C)ccc3Cl)c(NC(=O)COCc3ccccc3)cc2NC1=O : 11

inhibition in this record for COC(=O)CC[C@H]1NC(=O)c2cc(Oc3cccc(N(C)C)c3)c(NC(=O)COCc3ccc(Br)cc3)cc2NC1=O : 85
